All values here come from ChEMBL document CHEMBL3108777.

# MIC values compiled below
test system: Saccharomyces cerevisiae; experiment: Antifungal activity against Saccharomyces cerevisiae assessed as growth inhibition measured every 4 hrs; format: functional
Numeric answer plus unit only.

Recorded results for 3 compounds are shown here.
{"SMILES_INPUT": "O=C(O)c1c(O)cc2c(c1O)[C@@H](O)O[C@@H](CCCCCCCO)C2", "MIC": "100 µg/mL"}
{"SMILES_INPUT": "C[C@@H](O)CCCCC[C@H]1Cc2cc(O)c(C(=O)O)c(O)c2CO1", "MIC": "100 µg/mL"}
{"SMILES_INPUT": "C[C@@H](O)CCCCC[C@H]1Cc2cc(O)c(C(=O)O)c(O)c2[C@@H](O)O1", "MIC": "100 µg/mL"}

Just so you know, measured MIC for O=C(O)c1c(O)cc2c(c1O)CO[C@@H](CCCCCCCO)C2 came out at 100 µg/mL
